assay.target: HIV-1 integrase (IN) (Human immunodeficiency virus type 1 group M subtype B)
test: In vitro integrase catalytic assay, strand transfer (ST)
Type: biochemical
assay.context: 400 nM IN, 20 nM 32P-labeled pre-cleaved 19T/21B DNA, 37 °C, 2 h
Where a SMILES comes first, the peptide text is derived from it.
measurement.type: IC50 (µM)
Give bare numbers, in µM.

Some solved cases for reference:
CC[C@H](C)[C@H](NC(=O)[C@H](CCCNC(=N)N)NC(=O)[C@H](C)NC(=O)[C@H](Cc1c[nH]cn1)NC(=O)[C@@H](NC(=O)[C@@H](N)Cc1ccccc1)[C@@H](C)CC)C(=O)NCC(=O)O [Peptide 5a, FIHARIG] (H-FIHARIG-OH) | 46.6
CC[C@H](C)[C@H](NC(=O)[C@H](C)NC(=O)[C@H](Cc1ccccc1)NC(=O)[C@H](Cc1c[nH]cn1)NC(=O)[C@@H](NC(=O)[C@H](Cc1ccccc1)NC(C)=O)[C@@H](C)CC)C(=O)NCC(N)=O [Peptide 4c, Ac-FIHFAIG-amide] (Ac-FIHFAIG-NH2) | 81

Then this molecule:
Give the value of IC50 reported for the following: CC[C@H](C)[C@H](NC(=O)[C@H](CCCNC(=N)N)NC(=O)[C@H](Cc1ccccc1)NC(=O)[C@H](Cc1c[nH]cn1)NC(=O)[C@@H](NC(=O)[C@H](Cc1ccccc1)NC(C)=O)[C@@H](C)CC)C(=O)N[C@@H](C)C(N)=O [Peptide 2c, Ac-FIHFRIA-amide] (Ac-FIHFRIA-NH2)
30.4

Cited source for all entries: paper PMC6222646
